# assay: Plasma protein binding in rat relative to control
# Assay type: ADME, cell-free
# experimental_setup: read-out: PPB (converted)
reported_metric: fraction unbound

O=C(Nc1c2c(cc3c1CCC3)CCC2)NS(=O)(=O)c1cnn2c1OCCC2 0.014
CN[C@@H]1COc2c(S(=O)(=O)NC(=O)Nc3c4c(cc5c3CCC5)CCC4)cnn2C1 0.07

----------
# assay: Oral bioavailability in cynomolgus monkey at 1 mg/kg measured upto 24 hrs by LC-MS/MS analysis
# Type: ADME, organism-based, Macaca fascicularis
# experimental_setup: in vivo
reported_metric: bioavailability (%)

CN[C@@H]1COc2c(S(=O)(=O)NC(=O)Nc3c4c(cc5c3CCC5)CCC4)cnn2C1 53
O=C(Nc1c2c(cc3c1CCC3)CCC2)NS(=O)(=O)c1cnn2c1OCCC2 17

----------
The entries below are paired with their reported half-life.
# assay: Half life in CD-1 mouse at 1 mg/kg, iv measured upto 24 hrs by LC-MS/MS analysis
# Format: ADME, organism-based
# experimental_setup: in vivo
reported_metric: half-life

compound	assay_result
O=C(Nc1c2c(cc3c1CCC3)CCC2)NS(=O)(=O)c1cnn2c1OCCC2 [JT-001]	1.9 h
CN[C@@H]1COc2c(S(=O)(=O)NC(=O)Nc3c4c(cc5c3CCC5)CCC4)cnn2C1	1.2 h

----------
# assay: Half life in cynomolgus monkey at 1 mg/kg, iv measured upto 24 hrs by LC-MS/MS analysis
# Format: ADME, organism-based, Macaca fascicularis
# experimental_setup: in vivo
reported_metric: half-life (h)

O=C(Nc1c2c(cc3c1CCC3)CCC2)NS(=O)(=O)c1cnn2c1OCCC2 1.4
CN[C@@H]1COc2c(S(=O)(=O)NC(=O)Nc3c4c(cc5c3CCC5)CCC4)cnn2C1 0.89

----------
# target_or_system: hERG (KCNH2) (Homo sapiens, UniProt Q12809)
# Sequence (Q12809 whole entry): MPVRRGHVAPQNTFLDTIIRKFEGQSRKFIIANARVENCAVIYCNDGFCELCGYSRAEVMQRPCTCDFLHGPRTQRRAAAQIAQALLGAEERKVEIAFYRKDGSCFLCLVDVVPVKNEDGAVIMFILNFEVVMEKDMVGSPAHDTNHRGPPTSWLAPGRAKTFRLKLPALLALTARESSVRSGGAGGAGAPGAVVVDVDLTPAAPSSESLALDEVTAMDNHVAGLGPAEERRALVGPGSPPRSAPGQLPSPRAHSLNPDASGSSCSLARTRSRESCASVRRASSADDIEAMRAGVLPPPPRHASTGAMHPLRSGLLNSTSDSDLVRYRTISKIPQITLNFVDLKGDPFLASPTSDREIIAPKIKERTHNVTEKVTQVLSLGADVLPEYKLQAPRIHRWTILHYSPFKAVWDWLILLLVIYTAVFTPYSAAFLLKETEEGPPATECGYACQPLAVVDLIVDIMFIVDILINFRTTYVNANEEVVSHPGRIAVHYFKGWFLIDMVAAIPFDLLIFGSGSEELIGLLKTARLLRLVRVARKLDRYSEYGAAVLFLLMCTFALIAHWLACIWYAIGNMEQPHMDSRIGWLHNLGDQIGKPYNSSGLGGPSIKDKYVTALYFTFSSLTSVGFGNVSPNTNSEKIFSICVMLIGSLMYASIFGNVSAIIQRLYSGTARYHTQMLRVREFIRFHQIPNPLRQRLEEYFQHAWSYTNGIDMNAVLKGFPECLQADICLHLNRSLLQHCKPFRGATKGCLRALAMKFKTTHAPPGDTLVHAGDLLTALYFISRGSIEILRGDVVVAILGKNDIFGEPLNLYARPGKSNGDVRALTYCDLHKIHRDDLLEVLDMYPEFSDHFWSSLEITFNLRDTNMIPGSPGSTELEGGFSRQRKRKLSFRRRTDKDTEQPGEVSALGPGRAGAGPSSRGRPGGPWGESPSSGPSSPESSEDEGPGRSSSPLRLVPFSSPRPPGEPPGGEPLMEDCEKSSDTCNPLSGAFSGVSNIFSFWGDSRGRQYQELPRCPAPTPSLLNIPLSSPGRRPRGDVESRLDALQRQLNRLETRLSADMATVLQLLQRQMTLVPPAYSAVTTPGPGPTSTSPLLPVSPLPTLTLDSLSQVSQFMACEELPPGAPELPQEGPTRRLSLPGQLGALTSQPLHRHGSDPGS
# assay: Inhibition of hERG at 10 uM relative to control
# Format: toxicity
reported_metric: inhibition at 10 µM (%)

compound	reported_metric	measurement_unit	assay_result
O=C(Nc1c2c(cc3c1CCC3)CCC2)NS(=O)(=O)c1cnn2c1OCCC2 [JT-001]	inhibition at 10 µM	%	9.7
CN[C@@H]1COc2c(S(=O)(=O)NC(=O)Nc3c4c(cc5c3CCC5)CCC4)cnn2C1	inhibition at 10 µM	%	0.2

----------
# assay: Cytotoxicity against human hepatocyte
# Type: toxicity, cell-based
# experimental_setup: hepatocytes
reported_metric: IC50

molecule	assay_result
O=C(Nc1c2c(cc3c1CCC3)CCC2)NS(=O)(=O)c1cnn2c1OCCC2 [JT-001]	> 100 µM
